These entries and their values trace back to the supplement of paper PMC5844555.

Known 3' UTR reporter interaction score of a selection of sequences
system: MYT1L; assay: 3' UTR reporter interaction score (median-centred robust z-score of log2 firefly/Renilla activity); higher = less repression of the 3' UTR reporter; details: HEK293T; 48 h
Give the figure only, with no unit attached.

{"PRIMARY SEQUENCE": "UCCCACGUUGUGGCCCAGCAG", "SUBJECT OF TEST": "MYT1L", "3' UTR reporter interaction score": -0.668}
{"PRIMARY SEQUENCE": "AGAGGUAGUAGGUUGCAUAGU", "SUBJECT OF TEST": "MYT1L", "3' UTR reporter interaction score": -0.701}
{"PRIMARY SEQUENCE": "AUCACACAAAGGCAACUUUUGU", "SUBJECT OF TEST": "MYT1L", "3' UTR reporter interaction score": 0.734}

Using the record for `UCUGGCUCCGUGUCUUCACUCC` , report its 3' UTR reporter interaction score. 1.3

Using the record for `UGGUAGACUAUGGAACGUA` , report its 3' UTR reporter interaction score. 0.0286

Using the record for `GAUUGCUCUGCGUGCGGAAUCGAC` , report its 3' UTR reporter interaction score. -1.1

Using the record for `AGCUACAUCUGGCUACUGGGUCUC` , report its 3' UTR reporter interaction score. -0.398

Using the record for `AGGCACGGUGUCAGCAGGC` , report its 3' UTR reporter interaction score. 0.478

Using the record for `UGGCAGUGUCUUAGCUGGUUGUU` , report its 3' UTR reporter interaction score. 1.45

Using the record for `AGACUUCCCAUUUGAAGGUGGC` , report its 3' UTR reporter interaction score. 0.482

Using the record for `CUGUGCGUGUGACAGCGGCUGA` , report its 3' UTR reporter interaction score. -2.16

Using the record for `UCUACAAAGGGAAGCCCUUUCUG` , report its 3' UTR reporter interaction score. 0.66

Using the record for `CAACGGAAUCCCAAAAGCAGCU` , report its 3' UTR reporter interaction score. -1.32

Using the record for `GGAGAAAUUAUCCUUGGUGUGU` , report its 3' UTR reporter interaction score. 0.261

Using the record for `CAGUGCAAUGUUAAAAGGGCAU` , report its 3' UTR reporter interaction score. -0.334
